Origin of the recorded values: paper PMC5057104

target: TyrBm (tyrosinase from Bacillus megaterium) (Priestia megaterium, UniProt B2ZB02)
Sequence (B2ZB02 1-297): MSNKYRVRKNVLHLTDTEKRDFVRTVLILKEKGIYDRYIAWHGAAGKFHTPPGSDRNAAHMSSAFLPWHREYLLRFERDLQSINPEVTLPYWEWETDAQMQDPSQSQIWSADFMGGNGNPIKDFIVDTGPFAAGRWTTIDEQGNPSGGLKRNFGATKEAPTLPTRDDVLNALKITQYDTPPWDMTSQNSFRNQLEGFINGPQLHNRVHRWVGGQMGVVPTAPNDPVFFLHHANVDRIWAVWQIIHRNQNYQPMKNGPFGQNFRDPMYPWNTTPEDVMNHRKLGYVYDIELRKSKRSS
MEASURED_METRIC: IC50 (µM)
Value expressed in µM; do not type the unit.

Problem: So what does the record say about IC50 for Oc1ccc(O)cc1 [HQ, hydroquinone] ?
Result: 32

* * *

target: TyrBm (tyrosinase from Bacillus megaterium) (Priestia megaterium, UniProt B2ZB02); assay: biochemical; type: binding; design: made in house; host or cells: Escherichia coli BL21
MEASURED_METRIC: pKd
Just so you know, pKd here is -log10 of the concentration in molar units; reply with that number alone.

Problem: So what does the record say about pKd for Oc1ccc(O)cc1 [HQ, hydroquinone] ?
Result: 5.05
